Source of measurements: the supplement of paper PMC10567573

B1: SMG5 (parent)
chain: TNPDLIIVCAQSSQSLWNRLSVLL

Variants of: B1
assay.info: protein stability index of a GFP-peptide fusion (GPS, HEK-293T) (PSI 1-6); higher = more stable;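 also: lentivirally expressed fusions sorted by FACS into six bins by GFP to DsRed ratio, PSI derived from sequencing read proportions per bin multiplied by bin number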
condition.parameters: c terminus: a fixed tail appended
Decide by protein stability index: equal to or exceeding 3 means 1, less means -1.

In [3]: df
Out[3]:
                             chain  answer_label
0  TNPDLIIVCAQSSQSLWLRLSVLL [N18L]             1
1  TNPDLIIVCAQSSQSFWNRLSVLL [L16F]             1
2  TNPDLIIVCAVSSQSLWNRLSVLL [Q11V]             1
3   TNPDLIGVCAQSSQSLWNRLSVLL [I7G]            -1
4  TNPDLIIVCAQSSQRLWNRLSVLL [S15R]            -1
5  TNPDLIIVCAQSSMSLWNRLSVLL [Q14M]            -1
6   TNPDLIIYCAQSSQSLWNRLSVLL [V8Y]            -1
7  TNPDLIIVCAQSSTSLWNRLSVLL [Q14T]             1
8  TNPDLIIVCAQSSQSLWNRLSVLH [L24H]            -1
9  TNPDLIIVCAQSSQSLWNRLLVLL [S21L]            -1
